Tested on: tRNA
Assay: Aminoacylation assay (tRNA charging)
Format: biochemical
Conditions: nsAA pAzF
measured.attribute: Km (µM)
Give just the number in µM; leave the unit off.

Per the records, this molecule ( pAcFRS.2: pAcFRS variant L65V, A167D, SEQ ID NO: 7 (protein) MDEFEMIKRNTSEIISEEELREVLKKDEKSALIGFEPSGKIHLGHYLQIKKMIDLQNAGFDIIIVLADLHAYLNQKGELDEIRKIGDYNKKVFEAMGLKAKYVYGSEFQLDKDYTLNVYRLALKTTLKRARRSMELIAREDENPKVAEVIYPIMQVNGCHYRGVDVDVGGMEQRKIHMLARELLPKKVVCIHNPVLTGLDGEGKMSSSKGNFIAVDDSPEEIRAKIKKAYCPAGVVEGNPIMEIAKYFLEYPLTIKRPEKFGGDLTVNSYEELESLFKNKELHPMRLKNAVAEELIKILEPIRKRL ) has Km equal to 33
